Where these numbers come from: patent US20250361322A1

- System under test: human Tissue Factor (hTF) (human, UniProt P13726 33-295)
- Assay name: cell-based or functional assay
Outcome measure: IC50, cell viability of A431 cells, Primary ADC, Continuous (FIG. 20A)
Entry format: amount then unit.

tisotumab vedotin (TF-011) ADC (antibody, V domains shown, MC-vc-PAB-MMAE on cysteines of the partially reduced antibody (chain and positions not stated), DAR 3-4) VH: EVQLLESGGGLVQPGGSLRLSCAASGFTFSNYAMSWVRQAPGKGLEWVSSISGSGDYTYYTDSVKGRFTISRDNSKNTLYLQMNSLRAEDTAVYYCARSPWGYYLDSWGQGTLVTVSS VL: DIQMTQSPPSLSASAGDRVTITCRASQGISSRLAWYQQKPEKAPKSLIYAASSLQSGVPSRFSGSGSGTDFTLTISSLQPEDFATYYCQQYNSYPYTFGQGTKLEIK | 0.05 nM
25A-vc-MMAE (antibody, IgG1, V domains shown, MC-vc-PAB-MMAE on cysteines of the partially reduced antibody (chain and positions not stated), DAR 3-4, Antibody-drug conjugate (primary ADC) of the IgG1 antibody; also called 25A ADC; 25A conjugated to MC-vc-PAB-MMAE) VH: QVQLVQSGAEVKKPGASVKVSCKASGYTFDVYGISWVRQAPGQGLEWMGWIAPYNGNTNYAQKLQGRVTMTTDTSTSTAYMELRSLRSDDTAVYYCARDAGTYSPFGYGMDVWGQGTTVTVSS VL: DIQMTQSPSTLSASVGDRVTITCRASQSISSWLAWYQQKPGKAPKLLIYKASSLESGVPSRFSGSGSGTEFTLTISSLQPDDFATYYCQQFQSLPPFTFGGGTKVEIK | 0.09 nM

We now examine a further binder.
-- ask Item anti-TF antibody 43D7 conjugated to MC-vc-PAB-MMAE (antibody, IgG1, V domains shown, MC-vc-PAB-MMAE on cysteines of the partially reduced antibody (chain and positions not stated), DAR 3-4) VH: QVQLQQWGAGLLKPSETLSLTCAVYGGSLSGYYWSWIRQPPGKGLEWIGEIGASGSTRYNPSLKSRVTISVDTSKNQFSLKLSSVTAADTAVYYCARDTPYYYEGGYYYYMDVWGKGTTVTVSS VL: EIVLTQSPGTLSLSPGERATLSCRASDSVDSSYLAWYQQKPGQAPRLLIYGAFSRANGIPDRFSGSGSGTDFTLTISRLEPEDFAVYYCQQAGVVPYTFGGGTKVEIK has what recorded IC50, cell viability of A431 cells, Primary ADC, Continuous (FIG. 20A)?
-- reply 0.06 nM
